# assay_system: T1, human CD200R1 expressed on cells (Jurkat-CD200R1, U937-CD200R1, HH cells) (human, UniProt Q8TD46 25-348)
# T1 construct: whole, on cells; also called HH (CRL-2105); cell surface-expressed CD200R1
# T1 sequence (looked up): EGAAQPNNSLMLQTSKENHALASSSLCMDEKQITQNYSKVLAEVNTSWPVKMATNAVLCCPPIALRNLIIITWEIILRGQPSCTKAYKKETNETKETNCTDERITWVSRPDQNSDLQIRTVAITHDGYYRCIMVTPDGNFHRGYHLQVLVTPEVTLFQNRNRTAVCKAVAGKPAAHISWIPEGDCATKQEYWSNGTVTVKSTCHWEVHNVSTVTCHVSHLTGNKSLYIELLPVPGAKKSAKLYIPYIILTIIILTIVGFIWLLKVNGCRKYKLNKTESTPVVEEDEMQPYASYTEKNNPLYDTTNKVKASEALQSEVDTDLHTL
# assay_info: flow cytometry, HH cells; drawn table
Field: Geo mean (%) at 800 nM. Provide a value for each of the binders that follow.
Kindly provide the numeric value in % only, without the unit symbol.

Query: Look at this binder and give its reported Geo mean (%) at 800 nM. P001018 scFv mutant L3-L94H (scFv) scFv: QVQLVQSGAEVKKPGASVKVSCKASGYTFTSYVMHWVRQAPGQGLEWMGYINPYNDDTNYNEKFKGRVTMTRDTSTSTVYMELSSLRSEDTAVYYCAREDYYGSRWGYWGQGTLVTVSSGGGGSGGGGSGGGGSDIVLTQSPASLAVSPGQRATITCRASKSVSTSGYSYMHWYQQKPGQPPKLLIYLASNLESGVPARFSGSGSGTDFTLTINPVEANDTANYYCQHSREHLTFGQGTKVEIK
Response: 105

Query: Another binder to check: P001018 scFv mutant L3-L94S (scFv) scFv: QVQLVQSGAEVKKPGASVKVSCKASGYTFTSYVMHWVRQAPGQGLEWMGYINPYNDDTNYNEKFKGRVTMTRDTSTSTVYMELSSLRSEDTAVYYCAREDYYGSRWGYWGQGTLVTVSSGGGGSGGGGSGGGGSDIVLTQSPASLAVSPGQRATITCRASKSVSTSGYSYMHWYQQKPGQPPKLLIYLASNLESGVPARFSGSGSGTDFTLTINPVEANDTANYYCQHSRESLTFGQGTKVEIK
Response: 110

Query: Another binder to check: P001018 scFv mutant H3-Y102K (scFv) scFv: QVQLVQSGAEVKKPGASVKVSCKASGYTFTSYVMHWVRQAPGQGLEWMGYINPYNDDTNYNEKFKGRVTMTRDTSTSTVYMELSSLRSEDTAVYYCAREDYYGSRWGKWGQGTLVTVSSGGGGSGGGGSGGGGSDIVLTQSPASLAVSPGQRATITCRASKSVSTSGYSYMHWYQQKPGQPPKLLIYLASNLESGVPARFSGSGSGTDFTLTINPVEANDTANYYCQHSRELLTFGQGTKVEIK
Response: 120

Entry source: patent US20260263521A1
